FYI, the data here is from ChEMBL document CHEMBL3885861.

Give measured LDH for each item. Keep answers brief.
# Species: Rattus norvegicus
# Assay notes: Open TG-GATES - Regimen: Single
# Type: toxicity, organism-based, Sprague-Dawley
# Set-up: regimen Single, gender Male, age 6 weeks
# Measurement conditions: in vivo, po, 300 mg/kg, 24 h, tissue Plasma, route gavage, dose level Middle
Report the figure in IU/L without appending any unit label.

Reported LDH of `COC1=CC(=O)C[C@@H](C)[C@]12Oc1c(Cl)c(OC)cc(OC)c1C2=O` : 119.8

Reported LDH of `NC(N)=Nc1nc(CSCCC(N)=NS(N)(=O)=O)cs1` : 176.6

Reported LDH of CCOC(=O)CCC(=O)O[C@H]1[C@H](O[C@@H]2[C@@H](C)[C@H](O[C@H]3C[C@@](C)(OC)[C@@H](O)[C@H](C)O3)[C@@H](C)C(=O)O[C@H](CC)[C@@](C)(O)[C@H](O)[C@@H](C)C(=O)[C@H](C)C[C@@]2(C)O)O[C@H](C)C[C@@H]1N(C)C [ERYTHROMYCIN ETHYLSUCCINATE] : 174.8

Reported LDH of COc1ccc2[nH]c([S+]([O-])Cc3ncc(C)c(OC)c3C)nc2c1 (centres undefined) : 207

###

Give measured KIDNEY_TOTAL for each item. Keep answers brief.
# Organism: Rattus norvegicus
# Assay notes: Open TG-GATES - Regimen: Single
# Type: toxicity, organism-based, Sprague-Dawley
# Set-up: regimen Single, gender Male, age 6 weeks
# Measurement conditions: in vivo, po, 100 mg/kg, 6 h, tissue Kidney, route gavage, dose level Low
Report the figure in g without appending any unit label.

Reported KIDNEY_TOTAL of CCOC(=O)CCC(=O)O[C@H]1[C@H](O[C@@H]2[C@@H](C)[C@H](O[C@H]3C[C@@](C)(OC)[C@@H](O)[C@H](C)O3)[C@@H](C)C(=O)O[C@H](CC)[C@@](C)(O)[C@H](O)[C@@H](C)C(=O)[C@H](C)C[C@@]2(C)O)O[C@H](C)C[C@@H]1N(C)C [ERYTHROMYCIN ETHYLSUCCINATE] : 2

Reported KIDNEY_TOTAL of `NC(N)=Nc1nc(CSCCC(N)=NS(N)(=O)=O)cs1` : 1.9

Reported KIDNEY_TOTAL of COc1ccc2[nH]c([S+]([O-])Cc3ncc(C)c(OC)c3C)nc2c1 (centres undefined) : 2

Reported KIDNEY_TOTAL of `COC1=CC(=O)C[C@@H](C)[C@]12Oc1c(Cl)c(OC)cc(OC)c1C2=O` : 1.9

###

# Species: Rattus norvegicus
# Assay notes: Open TG-GATES - Regimen: Single
# Format: toxicity, organism-based, Sprague-Dawley
# Design: regimen Single, gender Male, age 6 weeks
# Measurement conditions: in vivo, po, 10 mg/kg, 6 h, tissue Plasma, route gavage, dose level Low
Attribute measured: K (meq/L)
Report the figure in meq/L without appending any unit label.

Reported K of `CN(C)CCCN1c2ccccc2CCc2ccc(Cl)cc21` : 4.2

Reported K of `CN(C)CCCN1c2ccccc2CCc2ccccc21` : 4.2

Reported K of CC(C)OC(=O)C(C)(C)Oc1ccc(C(=O)c2ccc(Cl)cc2)cc1 [FENOFIBRATE] : 4.2

Reported K of `CN(C)CCN(Cc1cccs1)c1ccccn1` : 4.4

Reported K of `CC1=C(/C=C/C(C)=C/C=C/C(C)=C/CO)C(C)(C)CCC1` : 4.3

###

# Organism: Rattus norvegicus
# Assay notes: Open TG-GATES - Regimen: Daily Repeat
# Format: toxicity, organism-based, Sprague-Dawley
# Parameters: regimen Daily Repeat, gender Male, age 6 weeks
# Measurement conditions: in vivo, po, 300 mg/kg, 72 h, tissue Plasma, route gavage, dose level Middle, time 3 day
Give measured TBIL for each item. Keep answers brief.
Report the figure in mg/dL without appending any unit label.

Reported TBIL of CCOc1ccc(NC(=O)CC(C)O)cc1 (stereo not given) : 0.052

Reported TBIL of `COC1=CC(=O)C[C@@H](C)[C@]12Oc1c(Cl)c(OC)cc(OC)c1C2=O` : 0.1

Reported TBIL of CCOC(=O)CCC(=O)O[C@H]1[C@H](O[C@@H]2[C@@H](C)[C@H](O[C@H]3C[C@@](C)(OC)[C@@H](O)[C@H](C)O3)[C@@H](C)C(=O)O[C@H](CC)[C@@](C)(O)[C@H](O)[C@@H](C)C(=O)[C@H](C)C[C@@]2(C)O)O[C@H](C)C[C@@H]1N(C)C [ERYTHROMYCIN ETHYLSUCCINATE] : 0.016

Reported TBIL of `NC(N)=Nc1nc(CSCCC(N)=NS(N)(=O)=O)cs1` : 0.1

Reported TBIL of COc1ccc2[nH]c([S+]([O-])Cc3ncc(C)c(OC)c3C)nc2c1 (stereo not given) : 0.1

###

# Species on record: Rattus norvegicus
# Assay notes: Open TG-GATES - Regimen: Single
# Assay type: toxicity, organism-based, Sprague-Dawley
# Parameters: regimen Single, gender Male, age 6 weeks
# Measurement conditions: in vivo, po, 1000 mg/kg, 9 h, tissue Blood, route gavage, dose level High
Attribute measured: RBC (x10_4/ul)
Report the figure in x10_4/ul without appending any unit label.

Reported RBC of `COC1=CC(=O)C[C@@H](C)[C@]12Oc1c(Cl)c(OC)cc(OC)c1C2=O` : 575.8

Reported RBC of CC(C)OC(=O)C(C)(C)Oc1ccc(C(=O)c2ccc(Cl)cc2)cc1 [FENOFIBRATE] : 609.2

Reported RBC of COc1ccc2[nH]c([S+]([O-])Cc3ncc(C)c(OC)c3C)nc2c1 (stereo not given) : 603.8

Reported RBC of CCOC(=O)CCC(=O)O[C@H]1[C@H](O[C@@H]2[C@@H](C)[C@H](O[C@H]3C[C@@](C)(OC)[C@@H](O)[C@H](C)O3)[C@@H](C)C(=O)O[C@H](CC)[C@@](C)(O)[C@H](O)[C@@H](C)C(=O)[C@H](C)C[C@@]2(C)O)O[C@H](C)C[C@@H]1N(C)C [ERYTHROMYCIN ETHYLSUCCINATE] : 650.4

Reported RBC of `NC(N)=Nc1nc(CSCCC(N)=NS(N)(=O)=O)cs1` : 594.2

###

# Organism: Rattus norvegicus
# Assay notes: Open TG-GATES - Regimen: Single
# Assay type: toxicity, organism-based, Sprague-Dawley
# Set-up: regimen Single, gender Male, age 6 weeks
# Measurement conditions: in vivo, po, 100 mg/kg, 3 h, tissue Plasma, route gavage, dose level High
Attribute measured: LDH (IU/L)
Report the figure in IU/L without appending any unit label.

Reported LDH of `CC1=C(/C=C/C(C)=C/C=C/C(C)=C/CO)C(C)(C)CCC1` : 219.2

Reported LDH of `CN(C)CCCN1c2ccccc2CCc2ccccc21` : 61

Reported LDH of `CN(C)CCCN1c2ccccc2CCc2ccc(Cl)cc21` : 116.6

Reported LDH of `CN(C)CCN(Cc1cccs1)c1ccccn1` : 258.8

###

# Organism: Rattus norvegicus
# Assay notes: Open TG-GATES - Regimen: Single
# Format: toxicity, organism-based, Sprague-Dawley
# Set-up: regimen Single, gender Male, age 6 weeks
# Measurement conditions: in vivo, po, 300 mg/kg, 6 h, tissue Blood, route gavage, dose level Middle
Attribute measured: MCH (pg)
Report the figure in pg without appending any unit label.

Reported MCH of CCOC(=O)CCC(=O)O[C@H]1[C@H](O[C@@H]2[C@@H](C)[C@H](O[C@H]3C[C@@](C)(OC)[C@@H](O)[C@H](C)O3)[C@@H](C)C(=O)O[C@H](CC)[C@@](C)(O)[C@H](O)[C@@H](C)C(=O)[C@H](C)C[C@@]2(C)O)O[C@H](C)C[C@@H]1N(C)C [ERYTHROMYCIN ETHYLSUCCINATE] : 20.8

Reported MCH of COc1ccc2[nH]c([S+]([O-])Cc3ncc(C)c(OC)c3C)nc2c1 (centres undefined) [OMEPRAZOLE] : 21.2

Reported MCH of COC1=CC(=O)C[C@@H](C)[C@]12Oc1c(Cl)c(OC)cc(OC)c1C2=O [GRISEOFULVIN] : 21.8

Reported MCH of NC(N)=Nc1nc(CSCCC(N)=NS(N)(=O)=O)cs1 [FAMOTIDINE] : 22.3

###

# Species: Rattus norvegicus
# Assay notes: Open TG-GATES - Regimen: Single
# Format: toxicity, organism-based, Sprague-Dawley
# Design: regimen Single, gender Male, age 6 weeks
# Measurement conditions: in vivo, po, 30 mg/kg, 6 h, route gavage, dose level Middle
Attribute measured: TERMINAL_BW (g)
Report the figure in g without appending any unit label.

Reported TERMINAL_BW of CN(C)CCCN1c2ccccc2CCc2ccc(Cl)cc21 [CLOMIPRAMINE] : 214.2

Reported TERMINAL_BW of CN(C)CCCN1c2ccccc2CCc2ccccc21 [IMIPRAMINE] : 198.5

Reported TERMINAL_BW of `CN(C)CCN(Cc1cccs1)c1ccccn1` : 186.2

Reported TERMINAL_BW of CC1=C(/C=C/C(C)=C/C=C/C(C)=C/CO)C(C)(C)CCC1 [RETINOL] : 195.5
